- Test system: T-47D breast
- assay-info: NCI-60 one-dose screen, 48 h (100 = growth as untreated, 0 = no growth, -100 = all killed)
- condition-set: 10 µM
The panel holds about 83,000 compounds, 20% with a hit somewhere; the sample as a whole holds those more often.
Parameter class (string): assigned from measured growth. Ranges: low = under 30%, middle = from 30% up to 70%, high = 70% and over

Ask: Lab log: COc1cccc(-c2nnc(COc3ccc(-c4nc5ccccc5[nH]4)cc3OC)o2)c1 — assign growth category
Reply: high

***
Ask: Lab log: COc1cccc(-c2nnc(COc3ccc(-c4nc5ccc(C)cc5[nH]4)cc3OC)o2)c1 — assign growth category
Reply: middle

Ask: Lab log: Cc1ccc2c(c1)-c1cc(C)nn1-c1ccc(C#N)cc1O2 — assign growth category
Reply: middle

Ask: Lab log: CCCCOCCOCCOCc1cc2c(cc1Br)OCO2 — assign growth category
Reply: high

Ask: Lab log: COc1ccc(C2CC(c3ccc(-c4ccccc4)cc3)=NN2c2ccc(S(N)(=O)=O)cc2)cc1 (stereo unspecified) — assign growth category
Reply: middle

Ask: Lab log: CC1(C)CC(=O)c2c(nc3ccc(Cl)cc3c2-c2ccccc2)C1 — assign growth category
Reply: high

Ask: Lab log: CCOC(=O)[C@@H]1[C@H](c2ccccc2)[C@H]([N+](=O)[O-])[C@H](c2cn(-c3ccccc3)nc2C)N1Cc1ccccc1 — assign growth category
Reply: middle

Ask: Lab log: COc1ccc(/C=C2\CCC3C(CCCC34OCCO4)C2=O)cc1 (stereo unspecified) — assign growth category
Reply: high

Ask: Lab log: CCCCCC(=O)N1c2ccccc2NC2=C(C(=O)CC(c3ccc(OC)c(OC)c3)C2)C1c1ccc(C(F)(F)F)cc1 (stereo unspecified) — assign growth category
Reply: middle

Ask: Lab log: Cn1c(=O)c2[nH]c(C(O)c3ccc(Cl)cc3)nc2n(C)c1=O (stereo unspecified) — assign growth category
Reply: high

Ask: Lab log: COc1ccc(-c2nsc3c2NC(=O)CC3c2cccc(Cl)c2)cc1 (stereo unspecified) — assign growth category
Reply: middle

Ask: Lab log: CCOC(=O)c1ccc(N(C=O)CCC(=O)CCl)cc1 — assign growth category
Reply: low

Ask: Lab log: CCCc1c(CC)c(=N)c2ccccc2n1C — assign growth category
Reply: high

====

- Tested on: OVCAR-3 ovarian
- assay-info: NCI-60 one-dose screen, 48 h (100 = growth as untreated, 0 = no growth, -100 = all killed)
- condition-set: 10 µM
About 83,000 compounds went through this panel and 20% of them were active in at least one assay; those are over-represented in the sample as a whole.
measurement-type: growth (%)
The figure you give is taken to be in %; do not add the unit.

Ask: Return reported growth; argument: COc1cc(-c2cc(/C=C/C(C)=O)[nH]n2)cc(OC)c1OC
Reply: 85.2

Ask: Return reported growth; argument: CNCCCNCCCN1C(=O)c2ccc3c4c(ccc(c24)C1=O)C(=O)N(CCCNCc1ccccc1OC)C3=O
Reply: -17.6

Ask: Return reported growth; argument: CC(=O)N(O)c1ccc(/C=C/c2ccccc2)cc1
Reply: 42

Ask: Return reported growth; argument: Cc1cc2cc3c(=O)[nH]c(=O)cc-3n(CC(O)C(O)C(O)CO)c2cc1C (stereo not given)
Reply: 103

Ask: Return reported growth; argument: c1ccc(CNc2nc(Nc3ccc(-c4nc5ccccc5[nH]4)cc3)c3cn[nH]c3n2)cc1
Reply: -38.1

====

- Test system: 786-0 renal
- assay-info: NCI-60 one-dose screen, 48 h
- condition-set: 10 µM
This is part of a sample that, as a whole, favours compounds with a hit. Of some 83,000 tested, about 20% had one in any assay. The source made the active and inactive calls. How the source made its calls: active means growth percent below 10; inactive means the rest.
Respond with a class label; see active, inactive

Look over these answered cases.
Ask: Give the logged outcome of this assay for the following molecule: C=CCNC(=S)NN
Reply: inactive

Ask: Give the logged outcome of this assay for the following molecule: COc1cc(-c2n/c(=C\c3c(O)[nH]c4ccccc34)cc3c2=Nc2ccccc2-3)cc(OC)c1OC
Reply: inactive

Ask: Give the logged outcome of this assay for the following molecule: COc1ccc(OC)c([N+](=O)[O-])c1C=O
Reply: inactive

***
Ask: Give the logged outcome of this assay for the following molecule: CCC(OC(=O)CC(C)C)c1ccccc1 (stereo not drawn)
Reply: inactive

Ask: Give the logged outcome of this assay for the following molecule: CCCCCCCCCCCCCCCC(=O)N1CCN(C)CC1
Reply: inactive

Ask: Give the logged outcome of this assay for the following molecule: COc1ccc(C(=O)n2nc(CC(=O)NCc3ccccc3)nc2N)cc1
Reply: inactive

Ask: Give the logged outcome of this assay for the following molecule: COc1ccc(Nc2ccnc(N3CCN(c4ccnc5cc(Cl)ccc45)CC3)n2)cc1
Reply: active

Ask: Give the logged outcome of this assay for the following molecule: CCOC(=O)C(CCC1=NC(C)(C)CC(C)O1)C(=O)OCC (stereo not drawn)
Reply: inactive

Ask: Give the logged outcome of this assay for the following molecule: CC(=O)OC1Oc2ccccc2-c2oc(=O)c(-c3ccc(F)cc3)cc21 (stereo not drawn)
Reply: inactive

Ask: Give the logged outcome of this assay for the following molecule: O=[N+]([O-])C1CC2C=CC1C2 (stereo not drawn)
Reply: inactive

Ask: Give the logged outcome of this assay for the following molecule: CCn1nc(-c2ccccn2)c2cccnc2c1=S
Reply: inactive

Ask: Give the logged outcome of this assay for the following molecule: COc1ccc(/C=C2\CCC3C(CCCC34OCCO4)C2=O)cc1 (stereo not drawn)
Reply: inactive

Ask: Give the logged outcome of this assay for the following molecule: CCOc1nc(-c2ccccc2)cc2c(O)c(C(=O)NC(C)C)[nH]c(=O)c12
Reply: inactive

Ask: Give the logged outcome of this assay for the following molecule: COc1cccc(C2(C)Nc3ccccc3-c3nc4ccccc4n32)c1 (stereo not drawn)
Reply: inactive

Ask: Give the logged outcome of this assay for the following molecule: COc1ccc(Cn2cc3c(c2-c2cc(OC)c(OC)c(OC)c2)CCc2cnoc2-3)cc1[N+](=O)[O-]
Reply: inactive

Ask: Give the logged outcome of this assay for the following molecule: Cc1ccc2c3c(cccc13)-c1ccccc1C2=O
Reply: inactive

Ask: Give the logged outcome of this assay for the following molecule: CCCCn1c(=O)[nH]c2c(c1=O)C(c1ccc(Cl)cc1)c1c([nH]c(=O)n(CCCC)c1=O)N2
Reply: inactive

Ask: Give the logged outcome of this assay for the following molecule: CC(C)(C)CC(C)(C)c1ccc(O)c(Cc2ccc(Cl)cc2Cl)c1
Reply: active

Ask: Give the logged outcome of this assay for the following molecule: Cc1cc2cc3c(=O)[nH]c(=O)cc-3n(CC(O)C(O)C(O)CO)c2cc1C (stereo not drawn)
Reply: inactive

Ask: Give the logged outcome of this assay for the following molecule: Oc1ccc(Cn2cc3c(c2-c2ccccc2)CCc2cnoc2-3)cc1
Reply: inactive

Ask: Give the logged outcome of this assay for the following molecule: CCN(Cc1ccccc1)C1CCN(Cc2cc(Br)ccc2O)CC1
Reply: inactive

Ask: Give the logged outcome of this assay for the following molecule: Cc1ccc(-n2nnc3c(sc4ccccc43)c2=O)cc1
Reply: inactive

Ask: Give the logged outcome of this assay for the following molecule: CC(C)c1[nH]nc2c(NCc3ccc(-c4ccccn4)cc3)nc(SCCN)nc12
Reply: active

Ask: Give the logged outcome of this assay for the following molecule: CCCCOCC(=O)NC(NP(=O)(N(C)C)N(C)C)C(Cl)(Cl)Cl (stereo not drawn)
Reply: inactive

Ask: Give the logged outcome of this assay for the following molecule: OC(CNC1CCCC1)Cn1c2ccccc2c2ccccc21 (stereo not drawn)
Reply: active

Ask: Give the logged outcome of this assay for the following molecule: COc1cc(CSc2nc3ccc(Cl)cc3c(=O)n2Cc2ccccc2)cc(OC)c1OC
Reply: inactive

Ask: Give the logged outcome of this assay for the following molecule: CCOC(=O)CSC(=S)SCC(=O)OCC
Reply: inactive

Ask: Give the logged outcome of this assay for the following molecule: O=[N+]([O-])c1ccc(Br)o1
Reply: inactive

====

- System: SW-620 colon
- assay-info: NCI-60 one-dose screen, 48 h (100 = growth as untreated, 0 = no growth, -100 = all killed)
- condition-set: 10 µM
The panel holds about 83,000 compounds, 20% with a hit somewhere; the sample as a whole holds those more often.
measurement-type: growth (%)
The figure you give is taken to be in %; do not add the unit.

Record excerpt, results attached:
Ask: Return reported growth; argument: CC(C)OP(=O)(O)c1ncc(-c2ccc(C(F)(F)F)cc2)c(NC2CCCCCC2)n1
Reply: 54.7

Ask: Return reported growth; argument: COc1ccc2oc(=O)cc(C(c3ccc[nH]3)c3ccc[nH]3)c2c1
Reply: 25.6

***
Ask: Return reported growth; argument: FC(F)(F)c1ccc(-c2ncc(-c3ccc(C(F)(F)F)cc3)c(NCc3cc(C(F)(F)F)cc(C(F)(F)F)c3)n2)cc1
Reply: 59.7

Ask: Return reported growth; argument: Cc1ccc2nc3[nH]c(=O)[nH]c(=O)c3c(N)c2c1
Reply: 97.8

Ask: Return reported growth; argument: CCn1nc(-c2ccc(C(=O)OC)cc2)nc2c(=O)n(C)c(=O)nc1-2
Reply: 97.7
